Let's look at some molecules and their measured Potency.
Molecular target: Glucocorticoid receptor (Homo sapiens) (UniProt P04150)
Sequence (P04150 whole entry, looked up): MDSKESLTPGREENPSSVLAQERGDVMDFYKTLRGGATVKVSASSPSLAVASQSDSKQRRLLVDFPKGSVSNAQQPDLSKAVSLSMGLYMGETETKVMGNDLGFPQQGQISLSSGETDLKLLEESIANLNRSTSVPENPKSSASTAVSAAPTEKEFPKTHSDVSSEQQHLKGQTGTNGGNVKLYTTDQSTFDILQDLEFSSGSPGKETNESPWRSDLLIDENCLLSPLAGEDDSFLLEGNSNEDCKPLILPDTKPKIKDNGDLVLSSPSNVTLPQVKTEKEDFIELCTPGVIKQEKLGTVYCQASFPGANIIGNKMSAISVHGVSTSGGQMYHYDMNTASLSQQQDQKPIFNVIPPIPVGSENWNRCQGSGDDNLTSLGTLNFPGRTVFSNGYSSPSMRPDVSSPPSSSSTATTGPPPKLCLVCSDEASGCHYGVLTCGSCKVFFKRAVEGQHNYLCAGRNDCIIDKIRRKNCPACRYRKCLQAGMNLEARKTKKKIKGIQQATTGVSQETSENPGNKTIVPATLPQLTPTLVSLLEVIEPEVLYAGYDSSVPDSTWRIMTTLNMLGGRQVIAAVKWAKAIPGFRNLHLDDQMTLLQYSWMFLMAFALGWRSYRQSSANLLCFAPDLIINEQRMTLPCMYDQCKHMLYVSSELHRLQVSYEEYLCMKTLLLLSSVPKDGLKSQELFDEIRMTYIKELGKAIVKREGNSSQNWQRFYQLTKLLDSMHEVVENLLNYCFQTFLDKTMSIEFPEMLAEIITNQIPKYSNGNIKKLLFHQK
Test: GR-GFP Redistribution (AID 450); note: potency is the fitted concentration of half-maximal effect
Settings: U2OS GR-GFP nuclear translocation, laser cytometry, 2 h
Protocol: NIH Molecular Libraries Screening Centers Network [MLSCN] NIH Chemical Genomics Center [NCGC] […] GR-GFP U2OS cells were maintained in DMEM with Glutamax and high glucose, 1% v/v penicillin-streptomycin, and 0.5 mg/mL Geneticin. […] The plates were read by the Acumen Explorer using a 1 x 8 um scan of the whole well area. PI fluorescence triggered the collection of PI and GFP signals. […]
Activity calls are given as the source filed them.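 Rule for the calls: active = compounds whose dose series gives a full or clear partial fitted curve of increased nuclear translocation; inconclusive = weak partial curve or effect only at the top dose; inactive = no dose-dependent translocation response.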
READOUT TYPE: Potency

{"columns": ["MOLECULE", "EXPERIMENTAL VALUE"],
 "data": [
  ["Oc1ccc([C@@H]2CNCCc3c2cc(O)c(O)c3Cl)cc1", "> 46 µM (inactive)"],
  ["NC(=S)N/N=C\\c1c[nH]c2ccccc12", "> 46 µM (inactive)"],
  ["Cc1ccc2nc(CC(=O)c3ccc4ccccc4c3)c(=O)[nH]c2c1", "> 46 µM (inactive)"],
  ["Nc1nc(Sc2ccc([N+](=O)[O-])c3nonc23)c2[nH]cnc2n1", "> 46 µM (inactive)"],
  ["CC(C)CNc1nc(N)[nH]c(=O)c1NC=O", "> 46 µM (inactive)"],
  ["CCSCCCC(=O)O", "> 46 µM (inactive)"],
  ["Clc1ccc2c(c1)N(CCCN1CCCC13CCCCC3)c1ccccc1S2", "> 46 µM (inactive)"],
  ["c1ccc2c(CSCc3cccc4ccccc34)cccc2c1", "> 46 µM (inactive)"],
  ["CN(C)CCNc1nc2c(c(=O)n(C)c(=O)n2C)n1C", "> 46 µM (inactive)"],
  ["O[C@@H](c1cc(-c2ccccc2)nc2c1ccc1ccccc12)[C@@H]1CCCCN1", "> 46 µM (inactive)"],
  ["CC(C)(C)c1ccc(OC(=O)Nc2ccc(O)c(C(=O)O)c2)cc1", "> 46 µM (inactive)"],
  ["O=C(O)c1ccccc1-c1ccccc1C(=O)Nc1ccc2c(c1)Cc1ccccc1-2", "> 46 µM (inactive)"],
  ["O=C(O)c1ccc(/C=N\\N=C2c3ccccc3-c3ccccc32)cc1", "> 46 µM (inactive)"],
  ["C[C@@H](CCC(=O)O)C(=O)O", "> 46 µM (inactive)"],
  ["O=S(=O)(O)[C@@H](CO)c1ccccc1 (tested in a mixture with another compound)", "> 46 µM (inactive)"],
  ["C#C[C@H](N)CCC(=O)O", "> 46 µM (inactive)"],
  ["Nc1ncnc2c1ncn2[C@@H]1CCCO1", "> 46 µM (inactive)"],
  ["OCCNc1ncnc2nc[nH]c12", "> 46 µM (inactive)"],
  ["CCN1/C(=C\\C(C)=O)Sc2ccc(OC)cc21", "> 46 µM (inactive)"],
  ["OC[C@@H](O)[C@@H](O)[C@@H](O)[C@@H](O)c1nc2ccc(Cl)cc2[nH]1", "> 46 µM (inactive)"],
  ["COc1ccc(-c2nc(N)c3ncn([C@H]4O[C@@H](CO)[C@@H](O)[C@@H]4O)c3n2)cc1", "> 46 µM (inactive)"],
  ["S=C(S)NCCCn1ccnc1", "> 46 µM (inactive)"],
  ["Nc1ncnc2c([C@@H]3O[C@@H](CO)[C@H](O)[C@@H]3O)nsc12", "> 46 µM (inactive)"],
  ["Cc1cc(C(C)(C)C)c(OCCCN2CCOCC2)c(C(C)(C)C)c1", "> 46 µM (inactive)"]
]}
